# system: the molecule itself
# assay_overview: Blue-Native-PAGE, oligomeric conformation (self-association of identical chains)
experimental_endpoint: binding result

[in] Give the measured binding result for alpha/beta hydrolase variant of SEQ ID NO: 20 (H39R, N167T, F168Y, S174C, D179E, A182C, A183R, K186R, A187R, F218Y) (enzyme, homo-tetramer; also called zearalenone-cleaving polypeptide) MTDQSPETRDIFVPHAFEEQQVDLGEVVMNYVEAGSADRPALLLLPEQTGSWWSYEPVIGLLAESFHVFAVDIRGQGRSTWTPKRYSLDNFGNDLVRFISLVVKRPVIVSGNSSGGVLAAWLSAYAMPGQIRAALCEDTPFFASELVPAHGHSVRQAAGPAFELYRTYLGDQWCVADWEGFCRAARRSPSKIMSLFPSSDEPPQNLKEYDPEWARAFYEGTVALHCPHDLMLSQVKTPILITHHARAVDPHSGDLLGALSDFQAERAQAIIESAGVPVEYASFPDALHMMHQFEPERFAEVLTSWVARLPADTPGAHHHHHH
[out] binds

[in] Specify binding result for alpha/beta hydrolase variant of SEQ ID NO: 8 (N167T, S174T) (enzyme, homo-tetramer; also called zearalenone-cleaving polypeptide) MTDQSPETRDIFVPHAFEEQQVDLGEVVMNYVEAGSADHPALLLLPEQTGSWWSYEPVIGLLAESFHVFAVDIRGQGRSTWTPKRYSLDNFGNDLVRFISLVVKRPVIVSGNSSGGVLAAWLSAYAMPGQIRAALCEDTPFFASELVPAHGHSVRQAAGPAFELYRTFLGDQWTVADWDGFAAAAKASPSKIMSLFPSSDEPPQNLKEYDPEWARAFFEGTVALHCPHDLMLSQVKTPILITHHARAVDPHSGDLLGALSDFQAERAQAIIESAGVPVEYASFPDALHMMHQFEPERFAEVLTSWVARLPADTPGAHHHHHH and stop.
[out] binds

Value source: patent US20230383269A1
